MEASUREMENT TARGET: human JAK3 kinase domain (JH1) (Homo sapiens)
Construct: recombinantly generated catalytic kinase (also known as JH1) domain of human JAK1, JAK2, JAK3 and TYK2
Sequence (P52333 822-1111 limits assumed): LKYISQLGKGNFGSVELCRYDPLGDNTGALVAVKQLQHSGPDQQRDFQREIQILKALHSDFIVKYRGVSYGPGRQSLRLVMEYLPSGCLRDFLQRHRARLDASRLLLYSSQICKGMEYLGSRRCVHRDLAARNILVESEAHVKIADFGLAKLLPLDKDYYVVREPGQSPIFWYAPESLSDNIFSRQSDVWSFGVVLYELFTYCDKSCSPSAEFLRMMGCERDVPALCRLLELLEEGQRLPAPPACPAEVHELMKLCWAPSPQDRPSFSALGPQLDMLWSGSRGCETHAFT
TEST DESCRIPTION: JH1 biochemical assay for JAK3 (ADP-Glo kinase assay, recombinant JH1 catalytic domain, JAK3-974 peptide, 4 μM ATP)
ASSAY CONDITIONS: JAK3 JH1, ADP-Glo
Where a name gives a salt, the structure may show the parent alone.
REPORTED PROPERTY: IC50

Take a look at these entries with their results.
C[C@@H]1CN(c2nc(-c3cnn(CC4COC4)c3)cn3ncc(F)c23)C(=O)[C@]1(C#N)C1CC1 [Example 304] | < 100 nM
C[C@@H]1CN(c2ccnn3cc(-n4cc(CC#N)cn4)cc23)C(=O)[C@]1(C#N)C1CC1 [Example 339] | 100 to 1000 nM
C[C@@H]1CN(c2nc(-c3cccnc3OC(F)F)cn3nccc23)C(=O)[C@]1(C#N)C1CC1 [Example 256, trifluoroacetate] | 1000 to 5000 nM
C[C@@H]1CN(c2nc(-c3cnn(C4CC4)c3)cc3ncsc23)C(=O)[C@]1(C#N)C1CC1 [Example 357] | < 100 nM
C[C@@H]1CN(c2ccnn3cc(-c4cnn(C5CN(C)C5)c4)cc23)C(=O)[C@]1(C#N)C1CC1 [Example 316] | 100 to 1000 nM

# return recorded IC50 for entry C[C@@H]1CN(c2ccnc3cc(-c4cnn(C)c4)oc23)C(=O)[C@]1(C#N)C1CC1 [Example 268]
100 to 1000 nM

# return recorded IC50 for entry C[C@@H]1CN(c2cc(-c3cnn(C)c3)cc3ncnn23)C(=O)[C@]1(C#N)C1CC1 [Example 285]
> 10000 nM

# return recorded IC50 for entry C[C@@H]1CN(c2ncnc3cc(-c4cnn(C)c4)sc23)C(=O)[C@]1(C#N)C1CC1 [Example 286]
> 10000 nM

====

Catalogue of pIC50 values
MEASUREMENT TARGET: human JAK1 kinase domain (JH1) (Homo sapiens)
Construct: recombinantly generated catalytic kinase (also known as JH1) domain of human JAK1, JAK2, JAK3 and TYK2
Sequence (P23458 875-1153 limits assumed): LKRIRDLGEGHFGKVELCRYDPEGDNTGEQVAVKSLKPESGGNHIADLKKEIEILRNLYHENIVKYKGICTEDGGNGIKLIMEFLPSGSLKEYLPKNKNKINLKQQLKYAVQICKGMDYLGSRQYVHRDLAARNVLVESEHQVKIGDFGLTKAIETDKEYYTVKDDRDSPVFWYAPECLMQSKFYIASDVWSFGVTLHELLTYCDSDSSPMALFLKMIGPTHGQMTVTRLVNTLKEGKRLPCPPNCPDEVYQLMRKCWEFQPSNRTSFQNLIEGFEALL
TEST DESCRIPTION: JH1 biochemical assay for JAK1 (ADP-Glo kinase assay, recombinant JH1 catalytic domain, JAK3-342 peptide, 35 μM ATP)
ASSAY CONDITIONS: JH1 kinase domain, ADP-Glo
pIC50: −log10 of the molar value. Where a name gives a salt, the structure may show the parent alone.

Take a look at these entries with their results.
Cc1c(-c2cc3c(N4C[C@@H](C)[C@@](C#N)(C5CC5)C4=O)ccnn3c2)cnn1C | 6.00 to 7.00
C[C@@H]1CN(c2ccnn3cc(-c4cnn(-c5ccccn5)c4)cc23)C(=O)[C@]1(C#N)C1CC1 | 6.00 to 7.00
C[C@@H]1CN(c2ccnn3cc(-c4cccc5cnn(C)c45)cc23)C(=O)[C@]1(C#N)C1CC1 | < 5.00
C[C@@H]1CN(c2ccnn3cc(-c4cnn(C)c4)cc23)C(=O)[C@@]1(C#N)C1CC1 | < 5.00
C[C@@H]1CN(c2ccnn3cc(-c4cnc5cc(C#N)ccn45)cc23)C(=O)[C@]1(C#N)C1CC1 [Example 103, trifluoroacetate] | < 5.00
C[C@@H]1CN(c2ncnn3cc(-c4cnn(C)c4)cc23)C(=O)[C@]1(C#N)C1CC1 | < 5.00
C[C@@H]1C[C@](C#N)(C2CC2)C(=O)N1c1ccnn2cc(-c3cnn(C)c3)cc12 | 5.00 to 5.30

The record that follows has no pIC50 shown yet.
# return recorded pIC50 for entry `C[C@@H]1CN(c2ccnn3cc(-c4cnn(C5CC5)c4)cc23)C(=O)[C@]1(C#N)C1CC1`
6.00 to 7.00
